- assay.target: rPAPD5 (Homo sapiens)
- Construct: made in house
- Sequence (Q8NDF8 68-698 isoform Q8NDF8-5 limits assumed): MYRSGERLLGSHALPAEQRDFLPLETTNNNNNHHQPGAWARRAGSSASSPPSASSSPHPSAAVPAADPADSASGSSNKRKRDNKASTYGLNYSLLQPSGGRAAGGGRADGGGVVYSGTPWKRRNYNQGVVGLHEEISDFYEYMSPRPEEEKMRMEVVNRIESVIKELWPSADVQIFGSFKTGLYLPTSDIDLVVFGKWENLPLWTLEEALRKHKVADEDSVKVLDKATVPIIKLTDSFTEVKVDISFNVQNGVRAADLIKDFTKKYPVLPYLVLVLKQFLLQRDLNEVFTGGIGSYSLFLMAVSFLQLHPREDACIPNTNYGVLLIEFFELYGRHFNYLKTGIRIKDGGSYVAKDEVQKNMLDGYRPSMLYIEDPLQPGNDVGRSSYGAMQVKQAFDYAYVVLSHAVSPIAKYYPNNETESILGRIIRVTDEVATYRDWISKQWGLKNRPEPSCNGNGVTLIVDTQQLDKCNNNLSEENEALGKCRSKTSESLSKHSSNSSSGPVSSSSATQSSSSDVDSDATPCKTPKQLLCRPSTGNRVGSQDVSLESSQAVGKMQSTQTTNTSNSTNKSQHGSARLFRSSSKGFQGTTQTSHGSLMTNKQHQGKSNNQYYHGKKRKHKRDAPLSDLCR
- measurement.protocol: differential scanning fluorimetry (DSF) binding and stabilization of rPAPD5
- condition: 100 μM test compound; shift vs DMSO control; read-out: ΔTm at 100 μM
reported.metric: ΔTm at 100 µM

compound: O=C(O)c1cc(Cl)ccc1Nc1c(C2=CCNC2)cnc2ccc(Cl)cc12 [Compound 402A]
assay.target: rPAPD5 (Homo sapiens)
measured.result: > 5 °C
//
compound: O=C(O)c1cc(Cl)ccc1Nc1c(CN2CCSCC2)cnc2ccc(Cl)cc12 [Compound 428A]
assay.target: rPAPD5 (Homo sapiens)
measured.result: > 5 °C
//
compound: O=C(O)c1cc(O)ccc1Nc1c(S(=O)(=O)N2CCOCC2)cnc2ccc(Cl)cc12 [Compound 265A]
assay.target: rPAPD5 (Homo sapiens)
measured.result: > 5 °C
//
compound: O=C(O)c1cc(Cl)ccc1Nc1c(S(=O)(=O)N2CCSCC2)cnc2ccc(Cl)cc12 [Compound 349A]
assay.target: rPAPD5 (Homo sapiens)
measured.result: > 5 °C
//
compound: N#Cc1csc(-c2ccc3ncc(S(=O)(=O)N4CCOCC4)c(Nc4ccccc4C(=O)O)c3c2)c1 [Compound 139A]
assay.target: rPAPD5 (Homo sapiens)
measured.result: 1 to 5 °C

Request: Specify reported ΔTm at 100 µM for the compound shown: O=C1Cc2ccc(-c3ccc4ncc(S(=O)(=O)N5CCOCC5)c(Nc5ccccc5C(=O)O)c4c3)cc2N1 [Compound 170A]
Result: 1 to 5 °C

Request: Specify reported ΔTm at 100 µM for the compound shown: Cc1ccc(C(=O)O)c(Nc2c(S(=O)(=O)N3CCOCC3)cnc3ccc(Cl)cc23)c1 [Compound 272A]
Result: > 5 °C

Request: Specify reported ΔTm at 100 µM for the compound shown: Cc1c[nH]c2ncc(-c3ccc4ncc(S(=O)(=O)N5CCOCC5)c(Nc5ccccc5C(=O)O)c4c3)cc12 [Compound 156A]
Result: > 5 °C

Request: Specify reported ΔTm at 100 µM for the compound shown: CN1CCC(c2cnc3ccc(Cl)cc3c2Nc2ccccc2C(=O)O)CC1 [Compound 207A]
Result: > 5 °C
